molecular target: HA of influenza B virus B/Lee/40 (influenza B virus B/Lee/40) (UniProt P03460); assay: cell-based or functional assay
Sequence (P03460 16-584 limits assumed): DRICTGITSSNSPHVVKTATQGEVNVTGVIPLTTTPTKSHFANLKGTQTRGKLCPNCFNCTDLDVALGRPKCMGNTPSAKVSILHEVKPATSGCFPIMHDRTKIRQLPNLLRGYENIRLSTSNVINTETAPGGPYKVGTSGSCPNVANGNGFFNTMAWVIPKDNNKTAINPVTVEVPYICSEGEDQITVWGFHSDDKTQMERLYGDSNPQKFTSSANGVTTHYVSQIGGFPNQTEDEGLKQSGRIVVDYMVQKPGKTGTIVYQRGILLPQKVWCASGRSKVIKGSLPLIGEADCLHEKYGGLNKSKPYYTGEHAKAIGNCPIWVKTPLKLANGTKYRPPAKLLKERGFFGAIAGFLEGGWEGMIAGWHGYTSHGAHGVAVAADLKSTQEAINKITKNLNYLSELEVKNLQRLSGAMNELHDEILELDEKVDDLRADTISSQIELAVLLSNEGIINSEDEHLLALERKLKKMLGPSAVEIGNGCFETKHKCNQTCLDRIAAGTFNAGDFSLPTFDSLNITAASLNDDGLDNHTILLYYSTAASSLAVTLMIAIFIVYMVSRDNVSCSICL
Measured Attribute: Neutralization (Ave IC50 ug/ml) (µg/mL)
Answers are plain numbers, in µg/mL.

Reported Neutralization (Ave IC50 ug/ml) for FBC-39 FSL (antibody, V domains shown) VH: EVQLVESGGGLVKPGGSLRLSCAASGFSFLNAWMSWVRQAPGKGLEWVGRIKSNTDGGTTDYAAPVKGRFTISRDDSKNTLYLQMSSLKTEDTAVYYCTTDGPYSDDFRSGYAARYRYFGMDVWGQGTTVTVSS VL: DIQMTQSPSSVSASVGDRVTITCRASQDISTWLAWYQQKPGKAPKLLIYAASSLQSGVPSRFSGSGSGTDFTLTISSLQPEDFATYYCQQANSFPPTFGQGTKLEIK was 0.011
